// provenance: ChEMBL document CHEMBL5230103

Reported pIC50 is given for each of the following compounds.
# Tested on: SMMC-7721
# method_notes: Cytotoxicity against human SMMC-7721 cells assessed as inhibition of cell growth by MTT assay
# Assay type: functional, cell-based
pIC50: −log10 of the molar value.
measurement_name: pIC50

| smiles_record | measurement_name | measured_result |
| --- | --- | --- |
| CC(C)=CCC/C(C)=C/CC/C(C)=C/CSc1ccccc1C(=O)NCCCC(=O)NO | pIC50 | 5.31 |
| COc1ccc(-c2nc(C(=O)N(CCN(C)C)Cc3ccc(C(=O)NO)cc3)cc3c2[nH]c2ccccc23)cc1 | pIC50 | 5.80 |
| CC(C)=CCC/C(C)=C/CC/C(C)=C/CSc1ccccc1C(=O)O | pIC50 | 4.31 |
| CC(C)=CCC/C(C)=C/CC/C(C)=C/CSc1ccccc1C(=O)NCCC(=O)NO | pIC50 | 5.31 |
